Listed sequences paired with reported Binding of CR57 (10 μg/ml) to looped/cyclic peptide (PEPSCAN-ELISA)
System: human monoclonal antibody CR57
Type: binding
Answer with a number only.

biopolymerSequence | testTarget | resultNumber
NGIILGPDGNVLIPE | human monoclonal antibody CR57 | 104
TCGFVDERGLYKSLK | human monoclonal antibody CR57 | 84
PLVHPLADPSTVFKD | human monoclonal antibody CR57 | 101
SKGCLRVGGRCHPHV | human monoclonal antibody CR57 | 79
QSSLLQQHMELLESS | human monoclonal antibody CR57 | 97

Fill in the blank: the reported Binding of CR57 (10 μg/ml) to looped/cyclic peptide (PEPSCAN-ELISA) of KLVPGFGKAYTIFNK is ____.
54

State the recorded Binding of CR57 (10 μg/ml) to looped/cyclic peptide (PEPSCAN-ELISA) for this entry: FRSDEIEHLVVEELV
132

Field request: Binding of CR57 (10 μg/ml) to looped/cyclic peptide (PEPSCAN-ELISA) | item: KAYTIFNKTLMEADA
137

# lookup: Binding of CR57 (10 μg/ml) to looped/cyclic peptide (PEPSCAN-ELISA) of KRASKGSETCGFVDE
120

Which Binding of CR57 (10 μg/ml) to looped/cyclic peptide (PEPSCAN-ELISA) is reported for this sequence? TSNETKWCPPDQLVN
134

====

System: human monoclonal antibody CR57
Format: binding
Decide using Binding of CR57 to linear peptide (PEPSCAN-ELISA signal): a value greater than or equal to 90 is TRUE, a smaller one is FALSE.

Kindly determine if Binding of CR57 to linear peptide (PEPSCAN-ELISA signal) recorded for WSPIDIHHLSCPNNL is above or exactly 90.
FALSE

Quick check, Binding of CR57 to linear peptide (PEPSCAN-ELISA signal) >= 90? RASKGSETCGFVDER
FALSE

Confirm if Binding of CR57 to linear peptide (PEPSCAN-ELISA signal) reported for the sequence YNWKMAGDPRYEESL is 90 or above.
FALSE

Would you say HSRVFPSGKCSGVAV shows Binding of CR57 to linear peptide (PEPSCAN-ELISA signal) at minimum 90?
TRUE

Item LRLMDGTWVAMQTSN with Binding of CR57 to linear peptide (PEPSCAN-ELISA signal) of 90 or above?
TRUE

Record SRVFPSGKCSGVAVS ; criterion: Binding of CR57 to linear peptide (PEPSCAN-ELISA signal) no lower than 90. Met?
TRUE

====

# maps each entry to its Binding of CRJB (10 μg/ml) to looped/cyclic peptide (PEPSCAN-ELISA)
System: human monoclonal antibody CRJB
Format: binding
Returns: the value as a bare number; no unit string appended.

// known answers, use as guide
biopolymerSequence | resultNumber
EHLVVEELVRKREEC | 83
MTTKSVSFRRLSHLR | 8
TKSVSFRRLSHLRKL | 94
AYTIFNKTLMEADAH | 78
TTKSVSFRRLSHLRK | 72

Tell me the measured Binding of CRJB (10 μg/ml) to looped/cyclic peptide (PEPSCAN-ELISA) of GSETCGFVDERGLYK , please.
71

Which Binding of CRJB (10 μg/ml) to looped/cyclic peptide (PEPSCAN-ELISA) reading was recorded for the sequence HPHVNGVFFNGIILG ?
99

Entry VNLHDFRSDEIEHLV : reported Binding of CRJB (10 μg/ml) to looped/cyclic peptide (PEPSCAN-ELISA) = ?
56

src = patent US20060263802A1
